# System: M14
# protocol_description: NCI tumour cell line growth inhibition, 48 h
Calls of active or inactive are those of the source. No stated cut-off is given here; in the data, active = GI50 up to about 1.1 µM and inactive = higher.
// reported GI50 per item
endpoint_name: GI50

# compound, measured_on, value
data = [
    ("N#Cc1c2nc3ccccc3nc2n2ccc3ccccc3c12", "M14", "> 100 µM (inactive)"),
    ("O=C1CCC(CCc2nc3ccccc3[nH]2)(c2ccccc2)C(=O)N1 (stereo not drawn)", "M14", "> 100 µM (inactive)"),
    ("CCOc1cc2c(cc1OC)c[n+](C)c1c3cc(OC)c(OC)cc3ccc21", "M14", "> 100 µM (inactive)"),
]

----------
# Tested on: HOP-92
# protocol_description: NCI tumour cell line growth inhibition, 48 h
The source made the active and inactive calls. No stated cut-off is given here; in the data, active = GI50 up to about 1.1 µM and inactive = higher.
Outcome codes: active, inactive

# molecule, classification
data = [
    ("COc1ccc(/C=C2\\OC(=O)C(Cl)=C2c2ccc(OC)c(Cl)c2)cc1", "inactive"),
    ("N=C(N)NS(=O)(=O)c1ccc(NCCc2c3ccccc3nc3ccccc23)cc1", "inactive"),
    ("CC1=CC23C(COC(=O)C24CO4)C(C(=O)O)=CC3C1C (stereo not given)", "inactive"),
    ("COc1ccc(Nc2nc3c(N)cc(C(F)(F)F)cc3nc2-c2ccccc2)cc1OC", "inactive"),
    ("CC(=O)O[C@H]1C(=O)[C@@]2(C)[C@H]([C@H](OC(=O)C3CCCCC3)[C@]3(O)C[C@H](OC(=O)[C@H](O)[C@@H](NC(=O)C4CCCCC4)C4CCCCC4)C(C)=C1C3(C)C)[C@]1(OC(C)=O)CO[C@@H]1C[C@@H]2O", "active"),
]
